- Protocol Notes: Single time point (1 h) brain concentrations after i.n. administration in rats
- Type: in vivo
- Assay Setup: male, Wistar, cerebellum, other: intranasal (i.n.); rat, 30 mg/kg i.n., 1 h post dose; read-out: Mean concentration in cerebellum

{"columns": ["Compound", "Uom", "concentration at 1 h"],
 "data": [
  ["O=C(O)CC[C@H](NC(=O)N[C@@H](CS)C(=O)O)C(=O)O [DCMC, reference compound]", "ng/g", 200],
  ["O=C(O)CCC(CCCS)C(=O)O (centres unmarked)", "ng/g", 210]
]}

====

- Protocol Notes: Pharmacokinetics of 2-PMPA after i.p. administration in rats
- Type: in vivo
- Assay Setup: male, Wistar, plasma, ip; rat, 30 mg/kg i.p.; read-out: Apparent clearance
Measure: CL/F (mL/min/kg)

{"columns": ["Compound", "Uom", "Observed Result"],
 "data": [
  ["O=C(O)CCC(CP(=O)(O)O)C(=O)O (stereo not shown) [2-PMPA, 2-(phosphonomethyl)-pentanedioic acid]", "mL/min/kg", 9.71]
]}
